Quick reference for Spectra (number of spectra for the prey in the purification of the bait) among some molecules
Biological target: T1, nSR100 (Mus musculus, UniProt Q8BKA3)
T1 construct: host or cells: mouse N2A cells
T1 sequence (Q8BKA3 1-608): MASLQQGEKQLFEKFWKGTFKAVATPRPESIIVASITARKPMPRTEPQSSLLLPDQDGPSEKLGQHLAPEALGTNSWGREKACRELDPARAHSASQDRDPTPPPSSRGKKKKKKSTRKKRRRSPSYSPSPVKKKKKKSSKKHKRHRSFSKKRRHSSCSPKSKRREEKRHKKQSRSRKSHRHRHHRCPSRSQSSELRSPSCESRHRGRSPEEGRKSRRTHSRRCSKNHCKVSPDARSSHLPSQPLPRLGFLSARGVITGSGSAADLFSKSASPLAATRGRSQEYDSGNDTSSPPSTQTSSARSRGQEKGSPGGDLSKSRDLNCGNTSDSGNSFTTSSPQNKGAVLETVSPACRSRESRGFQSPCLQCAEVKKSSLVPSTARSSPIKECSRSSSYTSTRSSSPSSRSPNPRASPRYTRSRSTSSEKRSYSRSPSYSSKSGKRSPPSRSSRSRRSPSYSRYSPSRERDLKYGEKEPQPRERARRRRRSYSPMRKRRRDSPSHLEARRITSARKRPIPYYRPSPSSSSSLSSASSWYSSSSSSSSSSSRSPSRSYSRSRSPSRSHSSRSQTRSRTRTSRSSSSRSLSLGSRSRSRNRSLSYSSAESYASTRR
Assay: AP-MS nSR100 interaction partners from mouse N2A cells (Table 5)
Format: binding
Conditions: bait Srrm4, biological replicate 2 (second number of the cell), AP-MS
measure: Spectra (number of spectra for the prey in the purification of the bait)

{"molecule": "Bcas2 (protein, UniProt Q9D287 2-225, looked up) Pre-mRNA-splicing factor SPF27: AGTGLVAGEVVVDALPYFDQGYEAPGVREAAAALVEEETRRYRPTKNYLSYLTAPDYSAFETDIMRNEFERLAARQPIELLSMKRYELPAPSSGQKNDITAWQECVNNSMAQLEHQAVRIENLELMSQHGCNAWKVYNENLVHMIEHAQKELQKLRKHIQDLNWQRKNMQLTAGSKLREMESNWVSLVSKNYEIERTIVQLENEIYQIKQQHGEANKENIRQDF", "value": 3}
{"molecule": "Luc7l (protein, UniProt Q9CYI4 1-371, looked up) Putative RNA-binding protein …: MSAQAQMRALLDQLMGTARDGDETRQRVKFTDDRVCKSHLLDCCPHDILAGTRMDLGECTKIHDLALRADYEIASKERDLFFELDAMDHLESFIAECDRRTELAKKRLAETQEEISAEVSAKAEKVHELNEEIGKLLAKAEQLGAEGNVDESQKILMEVEKVRAKKKEAEEEYRNSMPASSFQQQKLRVCEVCSAYLGLHDNDRRLADHFGGKLHLGFIQIREKLDQLRKTVAEKQEKRNQDRLRRREEREREERLGRRSGSRTRDRRRSRSRDRRRRRSRSTSRERRKFSRSRSRDRYRRHRSRSRSHSRGHRRASRDRSTKYKFSRERSLREESWEYGRNERGPTDWRLENSNGKTASRRSEEKEAGEI", "value": 20}
{"molecule": "Csnk2a2 (protein, UniProt O54833 1-350, looked up) Casein kinase II subunit …: MPGPAAGSRARVYAEVNSLRSREYWDYEAHVPSWGNQDDYQLVRKLGRGKYSEVFEAINITNNERVVVKILKPVKKKKIKREVKILENLRGGTNIIKLIDTVKDPVSKTPALVFEYINNTDFKQLYQILTDFDIRFYMYELLKALDYCHSKGIMHRDVKPHNVMIDHQQKKLRLIDWGLAEFYHPAQEYNVRVASRYFKGPELLVDYQMYDYSLDMWSLGCMLASMIFRKEPFFHGQDNYDQLVRIAKVLGTDELYGYLKKYHIDLDPHFNDILGQHSRKRWENFIHSENRHLVSPEALDLLDKLLRYDHQQRLTAKEAMEHPYFYPVVKEQSQPCAENTVLSSGLTAAR", "value": 24}
{"molecule": "Grpel1 (protein, UniProt Q99LP6 28-217, looked up) GrpE protein homolog 1, …: CTATKQKNNGQNLDEDLGHCEPKTDPPSADKTLLEEKAKLEEQLRETMEKYKRALADTENLRQRSQKLVEEAKLYGIQGFCKDLLEVADILEKATQSVPKEEISNNNPHLKSLYEGLVMTEVQIQKVFTKHGLLRLDPIGAKFDPYEHEALFHTPVEGKEPGTVALVSKVGYKLHGRTLRPALVGVVKDA", "value": 17}
{"molecule": "Snrpa (protein, UniProt Q62189 1-287, looked up) U1 small nuclear …: MATIATMPVPETRANHTIYINNLNEKIKKDELKKSLYAIFSQFGQILDILVSRIMKMRGQAFVIFKEVTSATNALRSMQGFPFYDKPMRIQYAKTDSDIIAKMKGTYVERDRKREKRKPKSQETPAAKKAVQGGAAAPVVGAVQPVPGMPPMPQAPRIMHHMPGQPPYMPPPGMIPPPGLAPGQIPPGAMPPQQLMPGQMPPAQPLSENPPNHILFLTNLPEETNELMLSMLFNQFPGFKEVRLVPGRHDIAFVEFDNEVQAGAARDALQGFKITQNNAMKISFAKK", "value": 40}
